Give SGCB cell-surface expression functional score (log10) for every item shown.
B1: library; numbered along this chain (parent)
chain: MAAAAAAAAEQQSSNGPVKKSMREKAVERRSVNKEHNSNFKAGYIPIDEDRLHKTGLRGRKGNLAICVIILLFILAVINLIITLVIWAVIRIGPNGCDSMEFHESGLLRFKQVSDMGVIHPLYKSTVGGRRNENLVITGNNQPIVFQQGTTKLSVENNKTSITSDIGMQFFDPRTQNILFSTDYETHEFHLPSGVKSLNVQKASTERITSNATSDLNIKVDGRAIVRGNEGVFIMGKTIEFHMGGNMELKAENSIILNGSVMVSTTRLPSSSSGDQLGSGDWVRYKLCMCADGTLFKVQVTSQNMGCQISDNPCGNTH

Variants of: B1
protocol-notes: SGCB cell-surface expression functional score (HA stain, bin4 vs bin1, normalised to synonymous) (log10 ratio); higher = more cell-surface SGCB (functional)
# print the numeric value only

Query: SGCB cell-surface expression functional score (log10); subject: `H242L`
0.7

Which SGCB cell-surface expression functional score (log10) reading was recorded for the variant `L277P` ?
-1.21

// SGCB cell-surface expression functional score (log10) lookup, key: `G56V`
0.05

GET /values?readout=SGCB cell-surface expression functional score (log10)&item= `I144S`
-0.8

SGCB cell-surface expression functional score (log10) for `G128C` ?
-0.21

For the variant shown here, `E10Y` , give the reported SGCB cell-surface expression functional score (log10).
0.17

SGCB cell-surface expression functional score (log10) lookup needed for `L57P` , thanks.
-0.03

Entry `V118C` has what SGCB cell-surface expression functional score (log10)?
0.74

Please look up its SGCB cell-surface expression functional score (log10): `M247Y`
1.22

Item `N95M` has what recorded SGCB cell-surface expression functional score (log10)?
0.68

Could you tell me which SGCB cell-surface expression functional score (log10) is on file for `I162P` ?
-1.25

Reported SGCB cell-surface expression functional score (log10) for `I70H` : what is it?
-0.21

What value of measured SGCB cell-surface expression functional score (log10) is listed for `E101P` ?
-1.78

Which SGCB cell-surface expression functional score (log10) value belongs to `T138F` ?
0.14

Given the entry `H103E` , report its measured SGCB cell-surface expression functional score (log10).
-0.33

// query SGCB cell-surface expression functional score (log10) value for entry `T265V`
0.52

I would be grateful if you could share the reported SGCB cell-surface expression functional score (log10) for `M168P` .
-0.24

Which value of SGCB cell-surface expression functional score (log10) has been reported for `V113K` in the records?
0.32

SGCB cell-surface expression functional score (log10) for `V283S` ?
-0.34

Can you look up the measured SGCB cell-surface expression functional score (log10) of `A42Y` for me?
-0.17

Query: SGCB cell-surface expression functional score (log10); subject: `S13V`
0.2

Using the record for `G315L` , report its SGCB cell-surface expression functional score (log10).
-0.02

Quick one: SGCB cell-surface expression functional score (log10) of `V232D` ?
-1.72

Quick check: SGCB cell-surface expression functional score (log10) of `L107I` ?
0.27

Please look up its SGCB cell-surface expression functional score (log10): `G167Q`
-0.39

Return reported SGCB cell-surface expression functional score (log10); argument: `L277M`
-0.2

Form field: reported SGCB cell-surface expression functional score (log10) of `T209H`
-0.13

I would be grateful if you could share the reported SGCB cell-surface expression functional score (log10) for `N258Q` .
0.63

// lookup SGCB cell-surface expression functional score (log10) for `S254F`
0.96

Look up SGCB cell-surface expression functional score (log10) for this variant: `S31C`
0.19

Would you kindly share the measured SGCB cell-surface expression functional score (log10) for `T209L` ?
-0.72

SGCB cell-surface expression functional score (log10) lookup needed for `F73S` , thanks.
-0.15

Quick one: SGCB cell-surface expression functional score (log10) for `G236F` ?
-1.96

For `Q303G` , what is its reported SGCB cell-surface expression functional score (log10)?
0.2

// query SGCB cell-surface expression functional score (log10) value for entry `V195H`
-1.52

Fill blank: measured SGCB cell-surface expression functional score (log10) of the variant `N217G` is ____.
0.5

Any idea what SGCB cell-surface expression functional score (log10) was measured for `T186D` ?
0.53

Using the record for `S197G` , report its SGCB cell-surface expression functional score (log10).
-0.19

Field request: SGCB cell-surface expression functional score (log10) | item: `A65T`
-0.01

Quick one: SGCB cell-surface expression functional score (log10) of `L257E` ?
-0.43

If you can, please state the reported SGCB cell-surface expression functional score (log10) value of `V220G` .
0.34

Looking for the measured SGCB cell-surface expression functional score (log10) of `V113S` , can you help?
-0.27

SGCB cell-surface expression functional score (log10) lookup needed for `D115N` , thanks.
-0.27

I would be grateful if you could share the reported SGCB cell-surface expression functional score (log10) for `R130F` .
0.13

Endpoint output: SGCB cell-surface expression functional score (log10) of `P17V` . Value?
-0.13

// query SGCB cell-surface expression functional score (log10) value for entry `V298R`
-0.21

Item `N95L` has what recorded SGCB cell-surface expression functional score (log10)?
-0.06

Any idea what its SGCB cell-surface expression functional score (log10) is? The variant is `C307G`
-0.44

Query: SGCB cell-surface expression functional score (log10); subject: `Y184P`
-0.93

Record request: SGCB cell-surface expression functional score (log10) value, item `I78K`
0.05

Tell me the measured SGCB cell-surface expression functional score (log10) of `S14Y` , please.
-0.15

Given `E10S` , state its recorded SGCB cell-surface expression functional score (log10).
0.03

Entry under review: `F102Q` . Reported SGCB cell-surface expression functional score (log10)?
-1.39

Please look up its SGCB cell-surface expression functional score (log10): `R60S`
0.18

Field request: SGCB cell-surface expression functional score (log10) | item: `L268I`
0.38

Can you look up the measured SGCB cell-surface expression functional score (log10) of `Q303F` for me?
0.11

Fill blank: measured SGCB cell-surface expression functional score (log10) of the variant `T83N` is ____.
0.2

For the variant shown here, `I144C` , give the reported SGCB cell-surface expression functional score (log10).
-0.33

GET /values?readout=SGCB cell-surface expression functional score (log10)&item= `L287V`
-0.04

Requested field: SGCB cell-surface expression functional score (log10). Item: `F73M`
-0.01

Quick one: SGCB cell-surface expression functional score (log10) for `C67K` ?
0.29

GET /values?readout=SGCB cell-surface expression functional score (log10)&item= `C290Q`
-0.2

Field request: SGCB cell-surface expression functional score (log10) | item: `S310K`
0.24

I would be grateful if you could share the reported SGCB cell-surface expression functional score (log10) for `L268K` .
-1.12

Returns the measured SGCB cell-surface expression functional score (log10) for the input variant. Input: `K20S`
0.14

What value of SGCB cell-surface expression functional score (log10) has been recorded for this entry: `V200D`
-1.23

Query (variant): `L216K` ; field requested: SGCB cell-surface expression functional score (log10)
-0.59

What does the data say about its SGCB cell-surface expression functional score (log10)? Entry: `S31I`
0.39

So what's the measured SGCB cell-surface expression functional score (log10) for this one? `I45M`
0.43

What value of SGCB cell-surface expression functional score (log10) has been recorded for this entry: `L135M`
-0.06

Which value of SGCB cell-surface expression functional score (log10) has been reported for `I90M` in the records?
-0.16

Item `E185N` has what recorded SGCB cell-surface expression functional score (log10)?
-0.3

Which SGCB cell-surface expression functional score (log10) value is on record for `S310P` ?
-0.54

Report SGCB cell-surface expression functional score (log10) for `F189Y` please.
-0.98

Would you kindly share the measured SGCB cell-surface expression functional score (log10) for `H36V` ?
0.28

Give its SGCB cell-surface expression functional score (log10) value. Item: `I178V`
0.68
